ASSAY_OVERVIEW: Oral bioavailability in rat
Format: ADME, organism-based
ASSAY_SETUP: in vivo
READOUT: bioavailability

[in] What value of measured bioavailability is listed for `C[C@H](Cc1cccc(CC(=O)NC23CC4CC(CC(C4)C2)C3)c1)NC[C@H](O)c1ccc(O)c(CO)c1` ?
[out] < 5%

###

ASSAY_OVERVIEW: Volume of distribution in iv dosed rat
Assay type: ADME, organism-based
ASSAY_SETUP: in vivo
READOUT: Vd (L/kg)
Quick note: give the figure in L/kg, leave out the unit.

[in] Which Vd value belongs to `C[C@H](Cc1cccc(CC(=O)NC23CC4CC(CC(C4)C2)C3)c1)NC[C@H](O)c1ccc(O)c(CO)c1` ?
[out] 14

###

ASSAY_OVERVIEW: Metabolic stability in human liver microsomes
Assay type: ADME, Microsome
ASSAY_SETUP: read-out: Stability
READOUT: half-life (min)
Express your answer in min, writing the number without its unit.

[in] Suppose we examine the molecule `C[C@H](Cc1cccc(CC(=O)NCc2ccc(Cl)c(Cl)c2)c1)NC[C@H](O)c1ccc(O)c(CO)c1` ; what half-life value has been reported?
[out] 4

[in] Value lookup for half-life; key = `C[C@H](Cc1cccc(CC(=O)NC2CCCCCCC2)c1)NC[C@H](O)c1ccc(O)c(CO)c1`
[out] 2

[in] For the molecule C[C@H](Cc1cccc(CC(=O)NC2C3CC4CC(C3)CC2C4)c1)NC[C@H](O)c1ccc(O)c(CO)c1 (stereo partly specified) , what half-life is on record?
[out] 2

[in] Entry under review: `C[C@H](Cc1cccc(CC(=O)NCC2CCCCC2)c1)NC[C@H](O)c1ccc(O)c(CO)c1` . Reported half-life?
[out] 3

[in] Name the reported half-life value associated with the molecule `C[C@H](Cc1cccc(CC(=O)NC23CC4CC(CC(C4)C2)C3)c1)NC[C@H](O)c1ccc(O)c(CO)c1`
[out] 2

[in] Could you tell me which half-life is on file for `C[C@H](Cc1cccc(CC(=O)NCC23CC4CC(CC(C4)C2)C3)c1)NC[C@H](O)c1ccc(O)c(CO)c1` ?
[out] 2

###

Species on record: Homo sapiens
ASSAY_OVERVIEW: Selectivity for human recombinant adrenergic beta2 receptor over human recombinant adrenergic beta-1 receptor
READOUT: Selectivity ratio
// no unit, no text: just the number

[in] Give its Selectivity ratio value. Item: `C[C@H](Cc1cccc(CC(=O)NCc2ccc(Cl)c(Cl)c2)c1)NC[C@H](O)c1ccc(O)c(CO)c1`
[out] 6340

[in] Give its Selectivity ratio value. Item: `C[C@H](Cc1cccc(CC(=O)NCC2CCCCCC2)c1)NC[C@H](O)c1ccc(O)c(CO)c1`
[out] 1890

[in] Given the compound `C[C@H](Cc1cccc(CC(=O)NC2CCCCCCC2)c1)NC[C@H](O)c1ccc(O)c(CO)c1` , what is its reported Selectivity ratio?
[out] 192

[in] Requested read-out: Selectivity ratio. Entry: `C[C@H](Cc1cccc(CC(=O)NCC23CC4CC(CC(C4)C2)C3)c1)NC[C@H](O)c1ccc(O)c(CO)c1`
[out] 547

[in] What value of Selectivity ratio has been recorded for this entry: C[C@H](Cc1cccc(CC(=O)NC2C3CC4CC(C3)CC2C4)c1)NC[C@H](O)c1ccc(O)c(CO)c1 (some centres not stated)
[out] 451

[in] Which Selectivity ratio value belongs to `C[C@H](Cc1cccc(CC(=O)NC23CC4CC(CC(C4)C2)C3)c1)NC[C@H](O)c1ccc(O)c(CO)c1` ?
[out] 2210

[in] Please give the measured Selectivity ratio for this compound: `C[C@H](Cc1cccc(CC(=O)NCC2CCCCC2)c1)NC[C@H](O)c1ccc(O)c(CO)c1`
[out] 6790

###

ASSAY_OVERVIEW: Distribution coefficient, log D of the compound
Assay type: physicochemical
ASSAY_SETUP: octanol/water
Just a reminder that ties go to label 0: only logD strictly below 2 counts as label 1.

[in] In plain terms, does C[C@H](Cc1cccc(CC(=O)NC2C3CC4CC(C3)CC2C4)c1)NC[C@H](O)c1ccc(O)c(CO)c1 (stereo partly specified) come in under 2 for logD?
[out] label 0

[in] Criterion: logD strictly below 2. Is it met by `C[C@H](Cc1cccc(CC(=O)NCC23CC4CC(CC(C4)C2)C3)c1)NC[C@H](O)c1ccc(O)c(CO)c1` ?
[out] label 0

[in] Please indicate whether the reported logD of `C[C@H](Cc1cccc(CC(=O)NC2CCCCCCC2)c1)NC[C@H](O)c1ccc(O)c(CO)c1` is strictly below 2.
[out] label 1

[in] Just wondering, is logD of `C[C@H](Cc1cccc(CC(=O)NCC2CCCCC2)c1)NC[C@H](O)c1ccc(O)c(CO)c1` below 2?
[out] label 1

[in] A record lists `C[C@H](Cc1cccc(CC(=O)NC23CC4CC(CC(C4)C2)C3)c1)NC[C@H](O)c1ccc(O)c(CO)c1` . Is its logD below 2?
[out] label 0
